measureName: melting point

Worked cases, melting point given:
> print(dat)
                            structuresmiles    measurename  measuredresult
1  COc1ccc(-c2ccc3c(C(N)=O)nn(-c4ccc(S(N)(=O)=O)cc4)c3c2)cc1  melting point   258 to 259 °C
2  NC(=O)c1nn(-c2ccc(S(N)(=O)=O)cc2)c2ccncc12  melting point   301 to 302 °C
3  CCOc1ccc2c(C(N)=O)nn(-c3ccc(S(N)(=O)=O)cc3)c2c1  melting point   213 to 214 °C
4  CNc1cccc(-c2ccc3c(C(N)=O)nn(-c4ccc(S(N)(=O)=O)cc4)c3c2)c1  melting point   159 to 160 °C
5  CC(C)(C)c1ccc(-c2ccc3c(C(N)=O)nn(-c4ccc(S(N)(=O)=O)cc4)c3c2)cc1  melting point   262 to 263 °C

Request: Endpoint output: melting point of `Cc1cc(-c2ccc3c(C(N)=O)nn(-c4ccc(S(N)(=O)=O)cc4)c3c2)ccc1F` . Value?
Result: 300 to 302 °C

Request: Repeat with `NC(=O)c1nn(-c2ccc(S(N)(=O)=O)cc2)c2cc(-c3ccccc3)ccc12`
Result: 232 to 234 °C

Request: Repeat with `NC(=O)c1nn(-c2ccc(S(N)(=O)=O)cc2)c2cc(Cc3ccccc3)ccc12`
Result: 207 to 209 °C

Request: Repeat with `Cc1cccc(-c2ccc3c(C(N)=O)nn(-c4ccc(S(N)(=O)=O)cc4)c3c2)c1`
Result: 261 to 263 °C

Request: Repeat with `NC(=O)c1nn(-c2ccc(S(N)(=O)=O)cc2)c2cc(-c3ccc(F)cc3)ccc12`
Result: 314 to 315 °C

Request: Repeat with `Cc1ccc2c(C(N)=O)nn(-c3ccc(S(N)(=O)=O)cc3)c2c1`
Result: 251 to 252 °C

Request: Repeat with `CN(C)c1cccc(-c2ccc3c(C(N)=O)nn(-c4ccc(S(N)(=O)=O)cc4)c3c2)c1`
Result: 237 to 238 °C

Request: Repeat with `NC(=O)c1nn(-c2ccc(S(N)(=O)=O)cc2)c2cc(-c3cccnc3)ccc12`
Result: 310 to 313 °C

Request: Repeat with `CCc1ccc2c(C(N)=O)nn(-c3ccc(S(N)(=O)=O)cc3)c2c1`
Result: 249 to 251 °C

Request: Repeat with `COc1cccc(-c2ccc3c(C(N)=O)nn(-c4ccc(S(N)(=O)=O)cc4)c3c2)c1`
Result: 229 to 230 °C

---

IC50 values by entry
# tgt: IKK heterodimer (rhIKK1/IKK2 heterodimer) (Homo sapiens, UniProt O14920+O15111)
# Construct: SF9 cell paste)
# Sequence (O15111 whole entry): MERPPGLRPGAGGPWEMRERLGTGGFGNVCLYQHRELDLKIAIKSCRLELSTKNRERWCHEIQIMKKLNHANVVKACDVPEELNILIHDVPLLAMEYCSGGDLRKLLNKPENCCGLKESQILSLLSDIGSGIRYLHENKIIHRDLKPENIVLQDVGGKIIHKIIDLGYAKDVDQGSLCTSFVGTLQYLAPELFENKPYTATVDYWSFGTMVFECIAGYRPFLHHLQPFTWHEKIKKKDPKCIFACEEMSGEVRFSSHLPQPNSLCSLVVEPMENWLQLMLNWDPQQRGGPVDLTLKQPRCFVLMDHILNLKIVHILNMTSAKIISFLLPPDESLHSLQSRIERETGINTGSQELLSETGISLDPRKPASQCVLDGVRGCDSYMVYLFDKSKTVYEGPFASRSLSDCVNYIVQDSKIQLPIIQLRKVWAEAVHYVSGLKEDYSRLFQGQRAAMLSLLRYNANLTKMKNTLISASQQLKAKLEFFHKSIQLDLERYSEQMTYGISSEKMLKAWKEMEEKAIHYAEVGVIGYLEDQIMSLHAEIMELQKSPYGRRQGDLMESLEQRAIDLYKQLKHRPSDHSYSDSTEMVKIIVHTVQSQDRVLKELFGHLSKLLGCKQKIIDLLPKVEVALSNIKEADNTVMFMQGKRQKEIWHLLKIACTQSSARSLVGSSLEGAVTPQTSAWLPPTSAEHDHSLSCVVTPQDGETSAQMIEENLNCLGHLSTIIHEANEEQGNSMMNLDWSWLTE
# Sequence (O14920 whole entry): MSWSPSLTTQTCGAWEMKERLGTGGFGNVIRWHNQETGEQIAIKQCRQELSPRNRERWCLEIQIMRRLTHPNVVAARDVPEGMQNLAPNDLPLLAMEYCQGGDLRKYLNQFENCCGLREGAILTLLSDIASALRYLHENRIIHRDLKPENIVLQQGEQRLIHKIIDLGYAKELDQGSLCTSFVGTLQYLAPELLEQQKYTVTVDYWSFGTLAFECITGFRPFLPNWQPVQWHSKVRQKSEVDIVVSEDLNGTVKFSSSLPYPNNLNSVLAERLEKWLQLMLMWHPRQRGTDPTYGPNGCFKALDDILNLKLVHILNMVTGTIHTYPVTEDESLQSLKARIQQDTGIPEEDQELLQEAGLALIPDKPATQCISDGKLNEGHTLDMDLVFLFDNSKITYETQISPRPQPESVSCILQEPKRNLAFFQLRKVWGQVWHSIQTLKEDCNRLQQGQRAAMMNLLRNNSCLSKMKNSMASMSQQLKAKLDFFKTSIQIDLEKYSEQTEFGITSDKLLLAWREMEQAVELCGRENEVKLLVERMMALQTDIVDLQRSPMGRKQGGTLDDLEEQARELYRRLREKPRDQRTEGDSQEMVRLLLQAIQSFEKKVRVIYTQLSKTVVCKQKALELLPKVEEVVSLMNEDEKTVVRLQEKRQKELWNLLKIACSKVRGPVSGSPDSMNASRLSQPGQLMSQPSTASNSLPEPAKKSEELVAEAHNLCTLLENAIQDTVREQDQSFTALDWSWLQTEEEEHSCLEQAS
# experiment: IKK heterodimer Resin Enzyme Assay
# conditionInfo: biotinylated IκBα peptide 5 μM, 1 μM ATP, 25° C., 30 min; read-out: HetD (IKK heterodimer Resin Enzyme Assay expressed as IC50)

Worked cases, IC50 given:
> print(dat)
                            structuresmiles                                       tgt  measuredresult
1  CN(C)c1cccc(-c2ccc3c(C(N)=O)nn(-c4ccc(S(N)(=O)=O)cc4)c3c2)c1  IKK heterodimer (rhIKK1/IKK2 heterodimer) (Homo sapiens, UniProt O14920+O15111)        > 100 µM
2  COc1ccc(-c2ccc3c(C(N)=O)nn(-c4ccc(S(N)(=O)=O)cc4)c3c2)cc1  IKK heterodimer (rhIKK1/IKK2 heterodimer) (Homo sapiens, UniProt O14920+O15111)        > 100 µM
3  CC(C)(C)c1ccc(-c2ccc3c(C(N)=O)nn(-c4ccc(S(N)(=O)=O)cc4)c3c2)cc1  IKK heterodimer (rhIKK1/IKK2 heterodimer) (Homo sapiens, UniProt O14920+O15111)        > 100 µM

Switching to the query record.
Request: Recall the recorded IC50 for `COc1cccc(-c2ccc3c(C(N)=O)nn(-c4ccc(S(N)(=O)=O)cc4)c3c2)c1` with IKK heterodimer (rhIKK1/IKK2 heterodimer) (Homo sapiens, UniProt O14920+O15111) and state it.
Result: 1 µM
